target: Bifunctional 3'-5' exonuclease/ATP-dependent helicase WRN [480-1251] (UniProt Q14191); construct: 480-1251; test: Biochemical Activity Assays
Sequence (Q14191 480-1251): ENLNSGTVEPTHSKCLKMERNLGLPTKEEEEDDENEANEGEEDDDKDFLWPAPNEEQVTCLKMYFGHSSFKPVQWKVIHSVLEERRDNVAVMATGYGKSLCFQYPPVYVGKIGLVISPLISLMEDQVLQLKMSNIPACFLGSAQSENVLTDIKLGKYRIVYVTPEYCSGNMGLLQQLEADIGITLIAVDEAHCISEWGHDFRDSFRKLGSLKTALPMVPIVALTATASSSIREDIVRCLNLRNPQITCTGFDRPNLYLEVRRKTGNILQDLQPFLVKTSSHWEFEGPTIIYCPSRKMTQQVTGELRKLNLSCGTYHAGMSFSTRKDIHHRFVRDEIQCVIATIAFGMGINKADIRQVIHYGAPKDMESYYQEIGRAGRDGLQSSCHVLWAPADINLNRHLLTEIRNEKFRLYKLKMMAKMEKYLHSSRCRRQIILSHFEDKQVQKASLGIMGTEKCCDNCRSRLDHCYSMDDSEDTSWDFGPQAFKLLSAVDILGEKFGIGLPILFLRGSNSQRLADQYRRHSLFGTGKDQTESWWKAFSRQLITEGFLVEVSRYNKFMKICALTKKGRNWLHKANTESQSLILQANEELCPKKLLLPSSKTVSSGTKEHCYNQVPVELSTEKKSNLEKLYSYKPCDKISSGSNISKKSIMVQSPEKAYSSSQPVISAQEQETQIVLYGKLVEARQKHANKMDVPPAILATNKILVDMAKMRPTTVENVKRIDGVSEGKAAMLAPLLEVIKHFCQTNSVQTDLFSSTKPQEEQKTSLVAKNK
pIC50: −log10 of the molar value.
recorded.metric: pIC50

INSERT INTO results (compound_structure, recorded_metric, meas_value) VALUES
  ('CCc1c(N2CCN(C(=O)c3ncnc(C)c3O)CC2)c(=O)n2nc(-c3ccc4c(c3C)CCO4)nc2n1CC(=O)Nc1ccc(C(F)(F)F)cc1Cl', 'pIC50', 7.48),
  ('CCc1c(N2CCN(C(=O)c3ncnc(C)c3O)CC2)c(=O)n2nc(-c3ccc4n[nH]cc4c3)nc2n1CC(=O)Nc1ccc(C(F)(F)F)cc1Cl', 'pIC50', 7.82),
  ('CCc1c(N2CCN(C(=O)c3ncnc(C)c3O)CC2)c(=O)n2nc(-c3ccc(NC(=O)NC)cc3)nc2n1CC(=O)Nc1ccc(C(F)(F)F)cc1Cl', 'pIC50', 7.59),
  ('CCc1c(N2CCN(C(=O)c3ncnc(C)c3O)CC2)c(=O)n2nc(-c3cc(OC(F)F)n4nccc4c3F)nc2n1CC(=O)Nc1ccc(C(F)(F)F)cc1Cl', 'pIC50', 7.03),
  ('CCc1c(N2CCN(C(=O)c3nc4n(c(=O)c3OCc3ccccc3)CCOC4)CC2)c(=O)n2nc(N(C)C)nc2n1CC(=O)Nc1ccc(C(F)(F)F)cc1Cl', 'pIC50', 7.42),
  ('CCc1c(N2CCN(C(=O)c3ncnc(C)c3O)CC2)c(=O)n2nc(-c3cnc4nccn4c3)nc2n1CC(=O)Nc1ccc(C(F)(F)F)cc1Cl', 'pIC50', 7.32),
  ('CCc1c(N2CCN(C(=O)c3nc4c(cc3O)OCC4)CC2)c(=O)n2nc(-c3ccc4c(c3)COC4)nc2n1CC(=O)Nc1ccc(C(F)(F)F)cc1Cl', 'pIC50', 7.30),
  ('CCc1c(N2CCN(C(=O)c3ncnc(C)c3O)CC2)c(=O)n2nc(-c3ccc4c(c3)nnn4C)nc2n1CC(=O)Nc1ccc(C(F)(F)F)cc1Cl', 'pIC50', 7.48),
  ('CCc1c(N2CCN(C(=O)c3ncnc(C)c3O)CC2)c(=O)n2nc(-c3ccc4c(c3C)COC4(C)C)nc2n1CC(=O)Nc1ccc(C(F)(F)F)cc1Cl', 'pIC50', 7.42),
  ('C=C(c1ccc(NC(=O)Cn2c(CC)c(N3CCN(C(=O)c4ncnc(C)c4O)CC3)c(=O)n3nc(-c4ccc5c(c4)COC5)nc23)c(Cl)c1)C(F)(F)F', 'pIC50', 7.41),
  ('CCc1c(N2CCN(C(=O)c3ncnc(C)c3O)CC2)c(=O)n2nc(-c3ccc4c(c3)NC(=O)C4)nc2n1CC(=O)Nc1ccc(C(F)(F)F)cc1Cl', 'pIC50', 7.51);
